These measurements were taken from patent US20250243180A1.

- measuredTarget: NEK7 (Homo sapiens (Human), UniProt Q8TDX7+Q96SW2)
- Sequence (Q8TDX7 whole entry): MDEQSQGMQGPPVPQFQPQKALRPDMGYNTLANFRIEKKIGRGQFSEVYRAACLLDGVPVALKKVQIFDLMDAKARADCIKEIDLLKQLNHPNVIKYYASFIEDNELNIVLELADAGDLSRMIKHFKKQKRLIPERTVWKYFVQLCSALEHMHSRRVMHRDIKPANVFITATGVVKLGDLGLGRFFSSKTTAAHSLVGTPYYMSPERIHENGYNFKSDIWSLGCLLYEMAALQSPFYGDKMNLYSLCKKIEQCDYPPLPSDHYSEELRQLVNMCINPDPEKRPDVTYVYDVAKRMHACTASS
- Sequence (Q96SW2 whole entry): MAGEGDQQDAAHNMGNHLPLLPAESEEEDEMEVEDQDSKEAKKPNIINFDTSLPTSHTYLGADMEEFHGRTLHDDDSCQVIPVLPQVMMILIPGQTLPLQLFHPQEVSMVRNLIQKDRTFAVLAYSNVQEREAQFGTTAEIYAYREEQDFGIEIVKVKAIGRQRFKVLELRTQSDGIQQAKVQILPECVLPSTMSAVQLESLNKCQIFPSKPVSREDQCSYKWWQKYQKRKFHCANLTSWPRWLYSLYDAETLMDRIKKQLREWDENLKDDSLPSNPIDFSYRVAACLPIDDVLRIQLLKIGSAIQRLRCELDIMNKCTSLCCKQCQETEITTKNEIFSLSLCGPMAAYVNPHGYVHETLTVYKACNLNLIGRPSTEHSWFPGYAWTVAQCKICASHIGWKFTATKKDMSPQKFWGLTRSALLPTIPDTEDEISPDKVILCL
- Sequence (Q16531 2-1140 partner): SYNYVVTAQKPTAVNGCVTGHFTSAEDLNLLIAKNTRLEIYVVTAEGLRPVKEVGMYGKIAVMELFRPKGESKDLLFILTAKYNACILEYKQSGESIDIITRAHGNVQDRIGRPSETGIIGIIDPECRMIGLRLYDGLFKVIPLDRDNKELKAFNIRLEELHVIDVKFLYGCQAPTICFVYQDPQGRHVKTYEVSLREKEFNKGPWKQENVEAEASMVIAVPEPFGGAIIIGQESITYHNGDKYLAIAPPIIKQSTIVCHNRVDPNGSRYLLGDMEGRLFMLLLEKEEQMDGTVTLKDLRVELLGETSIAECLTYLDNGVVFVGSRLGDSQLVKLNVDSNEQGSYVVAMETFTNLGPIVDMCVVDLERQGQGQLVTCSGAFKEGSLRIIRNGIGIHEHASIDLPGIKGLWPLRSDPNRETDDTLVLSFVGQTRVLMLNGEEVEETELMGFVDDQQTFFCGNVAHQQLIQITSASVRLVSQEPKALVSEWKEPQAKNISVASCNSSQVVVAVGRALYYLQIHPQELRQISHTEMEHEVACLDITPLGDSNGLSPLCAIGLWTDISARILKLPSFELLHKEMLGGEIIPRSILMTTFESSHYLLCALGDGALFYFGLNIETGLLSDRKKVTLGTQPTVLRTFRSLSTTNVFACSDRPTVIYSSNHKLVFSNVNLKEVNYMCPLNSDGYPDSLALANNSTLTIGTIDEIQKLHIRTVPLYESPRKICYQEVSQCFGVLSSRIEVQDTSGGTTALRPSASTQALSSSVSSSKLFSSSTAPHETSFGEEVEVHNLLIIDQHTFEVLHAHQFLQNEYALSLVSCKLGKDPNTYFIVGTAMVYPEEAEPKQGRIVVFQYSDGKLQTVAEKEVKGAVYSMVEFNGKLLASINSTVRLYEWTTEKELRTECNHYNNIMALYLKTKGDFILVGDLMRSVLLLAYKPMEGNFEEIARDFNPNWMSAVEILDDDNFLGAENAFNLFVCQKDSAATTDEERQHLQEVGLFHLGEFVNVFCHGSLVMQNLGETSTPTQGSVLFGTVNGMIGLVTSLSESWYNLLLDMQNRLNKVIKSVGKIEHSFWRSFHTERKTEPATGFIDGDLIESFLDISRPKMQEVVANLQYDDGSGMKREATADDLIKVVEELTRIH
- runDescription: NEK7 NanoBiT degradation assay in Cal51 NEK7 NanoBiT cell line
- Format: cell-based
- assayContext: Cal51 NEK7 NanoBiT cells, 24 hours; read-out: NEK7 NanoBiT DC50
# label = yes (1) if DC50 < 50 nM else no (0)

Cc1cnc(C(C)(C)C(=O)NCc2cc(Cl)c([C@H]3CCC(=O)NC3=O)c(Cl)c2)nc1 (single isomer, unassigned) [Compound 155] ... no (0)
O=C1CCC(c2c(Cl)cc(CNC(=O)C3(c4ccccc4)COC3)cc2Cl)C(=O)N1 (stereo not shown) [Compound 129] ... yes (1)

Let's switch to this compound now.
Check if DC50 falls below 50 nM for CC(C)(C(=O)NCc1cc(Cl)c(C2CCC(=O)NC2=O)c(Cl)c1)c1nccc(C(F)F)n1 (stereo not shown) [Compound 182] .
no (0)
